assay: Metabolic stability in rat plasma assessed as compound remaining measured at 3 hrs; type: ADME, cell-free; conditions: read-out: Stability
MEASURED_PROPERTY: remaining at 3 h (%)
Numbers only here, please. The scale is %.

Specify remaining at 3 h for CCCCCn1cc(C(=O)NCc2ccc(Cl)c(Cl)c2)c(=O)c2ccc(Sc3ccccc3)cc21 and stop.
100

Specify remaining at 3 h for CCn1cc(C(=O)N[C@@H]2C(C)(C)C3CC[C@]2(C)C3)c(=O)c2ccc(F)cc21 and stop.
92

###

species on record: Homo sapiens; test: Selectivity index, ratio of Ki for human recombinant CB1 receptor to Ki for human recombinant CB2 receptor
Would you mind telling me the reported Ratio Ki of each entry?
Respond numerically, and do not add a unit to the figure.

Specify Ratio Ki for CCCCCn1cc(C(=O)NC2CN3CCC2CC3)c(=O)c2ccc(Sc3ccccc3)cc21 (stereo not drawn) and stop.
1.7

Specify Ratio Ki for CCCCCn1cc(C(=O)N2CCC[C@H]2C(N)=O)c(=O)c2ccc(Sc3ccccc3)cc21 and stop.
6.5

Specify Ratio Ki for CCCn1cc(C(=O)N[C@@H]2C(C)(C)C3CC[C@]2(C)C3)c(=O)c2ccc(Sc3ccccc3)cc21 and stop.
31

Specify Ratio Ki for CCn1cc(C(=O)N[C@@H]2C(C)(C)C3CC[C@]2(C)C3)c(=O)c2ccc(Sc3ccccc3)cc21 and stop.
42

Specify Ratio Ki for CN(C)CCn1cc(C(=O)N[C@@H]2C(C)(C)C3CC[C@]2(C)C3)c(=O)c2ccc(Sc3ccccc3)cc21 and stop.
23

Specify Ratio Ki for CCCn1cc(C(=O)N[C@@H]2C(C)(C)C3CC[C@]2(C)C3)c(=O)c2ccc(F)cc21 and stop.
57

Specify Ratio Ki for CCCCCn1cc(C(=O)NN2CCCCC2)c(=O)c2ccc(Sc3ccccc3)cc21 and stop.
2.2

Specify Ratio Ki for CCCCCn1cc(C(=O)N[C@@H]2C(C)(C)C3CC[C@]2(C)C3)c(=O)c2ccc(F)cc21 and stop.
17

Specify Ratio Ki for CCCCCn1cc(C(=O)NC(C)C)c(=O)c2ccc(Sc3ccccc3)cc21 and stop.
1.4

Specify Ratio Ki for CCCCCn1cc(C(=O)NC23CC4CC(CC(C4)C2)C3)c(=O)c2ccc(Sc3ccccc3)cc21 and stop.
3.3

Specify Ratio Ki for Cn1cc(C(=O)N[C@@H]2C(C)(C)C3CC[C@]2(C)C3)c(=O)c2ccc(Sc3ccccc3)cc21 and stop.
117

Specify Ratio Ki for CCCCn1cc(C(=O)N[C@@H]2C(C)(C)C3CC[C@]2(C)C3)c(=O)c2ccc(Sc3ccccc3)cc21 and stop.
31

Specify Ratio Ki for CCCCCn1cc(C(=O)N[C@@H]2C(C)(C)C3CC[C@]2(C)C3)c(=O)c2ccc(Sc3ccccc3)cc21 and stop.
27.2

Specify Ratio Ki for CCCCCn1cc(C(=O)NOC)c(=O)c2ccc(Sc3ccccc3)cc21 and stop.
1.4

###

species: Homo sapiens; experiment: Selectivity index, ratio of Ki for human recombinant CB1 receptor to Ki for human recombinant CB2 receptor
MEASURED_PROPERTY: Ratio Ki
Respond numerically, and do not add a unit to the figure.

Specify Ratio Ki for CC1(C)C2CC[C@](C)(C2)[C@@H]1NC(=O)c1cn(CCCCO)c2cc(Sc3ccccc3)ccc2c1=O and stop.
15

Specify Ratio Ki for CCCCCn1cc(C(=O)NOCc2ccccc2)c(=O)c2ccc(Sc3ccccc3)cc21 and stop.
0.7

Specify Ratio Ki for CC1(C)C2CC[C@](C)(C2)[C@@H]1NC(=O)c1cn(CCCCO)c2cc(F)ccc2c1=O and stop.
26

Specify Ratio Ki for Cc1cccc(Cn2cc(C(=O)N[C@@H]3C(C)(C)C4CC[C@]3(C)C4)c(=O)c3ccc(Sc4ccccc4)cc32)c1 and stop.
5

Specify Ratio Ki for CCCCCn1cc(C(=O)NN(C)C)c(=O)c2ccc(Sc3ccccc3)cc21 and stop.
1.1

###

Would you mind telling me the reported Ki of each entry?
target: Cannabinoid receptor 2 (Homo sapiens); test: Displacement of [3H]CP55940 from human recombinant CB2 receptor transfected in HEK cell membranes; parameters: species or system HEK293
Sequence (P34972 whole entry): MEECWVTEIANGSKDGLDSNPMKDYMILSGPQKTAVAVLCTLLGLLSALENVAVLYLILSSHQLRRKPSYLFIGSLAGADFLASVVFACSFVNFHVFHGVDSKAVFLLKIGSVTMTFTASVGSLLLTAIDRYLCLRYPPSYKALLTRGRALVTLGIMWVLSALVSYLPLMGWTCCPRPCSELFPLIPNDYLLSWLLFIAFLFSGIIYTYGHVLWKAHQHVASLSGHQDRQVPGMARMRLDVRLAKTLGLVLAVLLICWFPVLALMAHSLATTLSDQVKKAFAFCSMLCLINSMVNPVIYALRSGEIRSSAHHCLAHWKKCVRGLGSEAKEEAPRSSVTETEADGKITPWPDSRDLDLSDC
Numbers only here, please. The scale is nM.

Specify Ki for CC1(C)C2CC[C@](C)(C2)[C@@H]1NC(=O)c1cn(CCCCO)c2cc(Sc3ccccc3)ccc2c1=O and stop.
2.5

Specify Ki for CCCCCn1cc(C(=O)NC(CC)CO)c(=O)c2ccc(Sc3ccccc3)cc21 (stereo not drawn) and stop.
19.9

Specify Ki for CCCCCn1cc(C(=O)NOC)c(=O)c2ccc(Sc3ccccc3)cc21 and stop.
340

Specify Ki for CCCCn1cc(C(=O)N[C@@H]2C(C)(C)C3CC[C@]2(C)C3)c(=O)c2ccc(Sc3ccccc3)cc21 and stop.
0.1

Specify Ki for CCCCCn1cc(C(=O)NN2CCCCC2)c(=O)c2ccc(Sc3ccccc3)cc21 and stop.
13.3

Specify Ki for COCCn1cc(C(=O)N[C@@H]2C(C)(C)C3CC[C@]2(C)C3)c(=O)c2ccc(Sc3ccccc3)cc21 and stop.
1.1

Specify Ki for CCn1cc(C(=O)N[C@@H]2C(C)(C)C3CC[C@]2(C)C3)c(=O)c2ccc(Sc3ccccc3)cc21 and stop.
4.4

Specify Ki for Cn1cc(C(=O)N[C@@H]2C(C)(C)C3CC[C@]2(C)C3)c(=O)c2ccc(F)cc21 and stop.
93.9

Specify Ki for CN(C)CCn1cc(C(=O)N[C@@H]2C(C)(C)C3CC[C@]2(C)C3)c(=O)c2ccc(F)cc21 and stop.
7.9

Specify Ki for CC1(C)C2CC[C@](C)(C2)[C@@H]1NC(=O)c1cn(CCCCO)c2cc(F)ccc2c1=O and stop.
15.2

Specify Ki for CCCCCn1cc(C(=O)NCCN2CCOCC2)c(=O)c2ccc(Sc3ccccc3)cc21 and stop.
119

Specify Ki for CCCCCn1cc(C(=O)N[C@@H]2C(C)(C)C3CC[C@]2(C)C3)c(=O)c2ccc(Sc3ccccc3)cc21 and stop.
0.09

Specify Ki for CCCCCn1cc(C(=O)NOCc2ccccc2)c(=O)c2ccc(Sc3ccccc3)cc21 and stop.
19.3

Specify Ki for Cc1cccc(Cn2cc(C(=O)N[C@@H]3C(C)(C)C4CC[C@]3(C)C4)c(=O)c3ccc(Sc4ccccc4)cc32)c1 and stop.
139

Specify Ki for Cc1cccc(Cn2cc(C(=O)N[C@@H]3C(C)(C)C4CC[C@]3(C)C4)c(=O)c3ccc(F)cc32)c1 and stop.
31.5

Specify Ki for CC1(C)C2CC[C@](C)(C2)[C@@H]1NC(=O)c1cn(CCCCSc2ccccc2)c2cc(Sc3ccccc3)ccc2c1=O and stop.
6.5

###

Would you mind telling me the reported Ki of each entry?
molecular target: Cannabinoid receptor 2 (Homo sapiens); assay: Displacement of [3H]CP55940 from human recombinant CB2 receptor transfected in HEK cell membranes; set-up: species or system HEK293
Numbers only here, please. The scale is nM.

Specify Ki for CCCn1cc(C(=O)N[C@@H]2C(C)(C)C3CC[C@]2(C)C3)c(=O)c2ccc(Sc3ccccc3)cc21 and stop.
0.4

Specify Ki for CCCCCn1cc(C(=O)NN(C)C)c(=O)c2ccc(Sc3ccccc3)cc21 and stop.
77.5

Specify Ki for CCCCCn1cc(C(=O)N2CCC[C@H]2C(N)=O)c(=O)c2ccc(Sc3ccccc3)cc21 and stop.
230

Specify Ki for COCCn1cc(C(=O)N[C@@H]2C(C)(C)C3CC[C@]2(C)C3)c(=O)c2ccc(F)cc21 and stop.
5.5

###

Would you mind telling me the reported pKi of each entry?
// pKi: -log10(molar conc.)

Using Cannabinoid receptor 1 (Homo sapiens, UniProt P21554) as the test system, report measured pKi of CCCCCn1cc(C(=O)NOCc2ccccc2)c(=O)c2ccc(Sc3ccccc3)cc21 .
7.89

Using Cannabinoid receptor 1 (Homo sapiens, UniProt P21554) as the test system, report measured pKi of C=Cn1cc(C(=O)N[C@@H]2C(C)(C)C3CC[C@]2(C)C3)c(=O)c2ccc(F)cc21 .
5.45

Using Cannabinoid receptor 1 (Homo sapiens, UniProt P21554) as the test system, report measured pKi of CCCCCn1cc(C(=O)NOC)c(=O)c2ccc(Sc3ccccc3)cc21 .
6.31

Using Cannabinoid receptor 1 (Homo sapiens, UniProt P21554) as the test system, report measured pKi of CC1(C)C2CC[C@](C)(C2)[C@@H]1NC(=O)c1cn(CCCCO)c2cc(F)ccc2c1=O .
6.40

Using Cannabinoid receptor 1 (Homo sapiens, UniProt P21554) as the test system, report measured pKi of CN(C)CCn1cc(C(=O)N[C@@H]2C(C)(C)C3CC[C@]2(C)C3)c(=O)c2ccc(Sc3ccccc3)cc21 .
7.54

Using Cannabinoid receptor 1 (Homo sapiens, UniProt P21554) as the test system, report measured pKi of CCCCCn1cc(C(=O)NC(CC)CO)c(=O)c2ccc(Sc3ccccc3)cc21 (centres undefined) .
7.24

Using Cannabinoid receptor 1 (Homo sapiens, UniProt P21554) as the test system, report measured pKi of CCCCCn1cc(C(=O)NC(C)C)c(=O)c2ccc(Sc3ccccc3)cc21 .
7.68

Using Cannabinoid receptor 1 (Homo sapiens, UniProt P21554) as the test system, report measured pKi of CCn1cc(C(=O)N[C@@H]2C(C)(C)C3CC[C@]2(C)C3)c(=O)c2ccc(F)cc21 .
6.02
